condition.description: in acetonitrile, 293.15 K
parameter: solubility (mole fraction)
Kindly provide the number alone.

Sample Nc1c(Cl)cc([N+](=O)[O-])cc1Cl ; solubility (mole fraction) observed: 0.00249

* * *

condition.description: in ethanol, 308.15 K
parameter: solubility (mole fraction)
Kindly provide the number alone.

Sample Nc1c(Cl)cc([N+](=O)[O-])cc1Cl ; solubility (mole fraction) observed: 0.00268

* * *

condition.description: in isopropanol, 303.15 K
parameter: solubility (mole fraction)
Kindly provide the number alone.

Sample Nc1c(Cl)cc([N+](=O)[O-])cc1Cl ; solubility (mole fraction) observed: 0.00195

* * *

condition.description: in ethylene glycol, 278.15 K
parameter: solubility (mole fraction)
Kindly provide the number alone.

Sample Nc1c(Cl)cc([N+](=O)[O-])cc1Cl ; solubility (mole fraction) observed: 0.000815

* * *

condition.description: in cyclohexane, 308.15 K
parameter: solubility (mole fraction)
Kindly provide the number alone.

Sample Nc1c(Cl)cc([N+](=O)[O-])cc1Cl ; solubility (mole fraction) observed: 0.000501

* * *

condition.description: in water, 323.15 K
parameter: solubility (mole fraction)
Kindly provide the number alone.

Sample Nc1c(Cl)cc([N+](=O)[O-])cc1Cl ; solubility (mole fraction) observed: 2.18e-05

* * *

condition.description: in methanol, 318.15 K
parameter: solubility (mole fraction)
Kindly provide the number alone.

Sample Nc1c(Cl)cc([N+](=O)[O-])cc1Cl ; solubility (mole fraction) observed: 0.00314

* * *

condition.description: in 1,4-dioxane, 303.15 K
parameter: solubility (mole fraction)

Sample Nc1c(Cl)cc([N+](=O)[O-])cc1Cl ; solubility (mole fraction) observed: 0.0337

* * *

condition.description: in n-butanol, 278.15 K
parameter: solubility (mole fraction)

Sample Nc1c(Cl)cc([N+](=O)[O-])cc1Cl ; solubility (mole fraction) observed: 0.00121

* * *

condition.description: in NMP, 293.15 K
parameter: solubility (mole fraction)
Kindly provide the number alone.

Sample Nc1c(Cl)cc([N+](=O)[O-])cc1Cl ; solubility (mole fraction) observed: 0.159

* * *

condition.description: in isopropanol, 308.15 K
parameter: solubility (mole fraction)
Kindly provide the number alone.

Sample Nc1c(Cl)cc([N+](=O)[O-])cc1Cl ; solubility (mole fraction) observed: 0.00234

* * *

condition.description: in n-butanol, 323.15 K
parameter: solubility (mole fraction)
Kindly provide the number alone.

Sample Nc1c(Cl)cc([N+](=O)[O-])cc1Cl ; solubility (mole fraction) observed: 0.00638

* * *

condition.description: in acetonitrile, 288.15 K
parameter: solubility (mole fraction)
Kindly provide the number alone.

Sample Nc1c(Cl)cc([N+](=O)[O-])cc1Cl ; solubility (mole fraction) observed: 0.00211

* * *

condition.description: in 1,4-dioxane, 298.15 K
parameter: solubility (mole fraction)
Kindly provide the number alone.

Sample Nc1c(Cl)cc([N+](=O)[O-])cc1Cl ; solubility (mole fraction) observed: 0.0292

* * *

condition.description: in methanol, 283.15 K
parameter: solubility (mole fraction)

Sample Nc1c(Cl)cc([N+](=O)[O-])cc1Cl ; solubility (mole fraction) observed: 0.000814

* * *

condition.description: in isopropanol, 318.15 K
parameter: solubility (mole fraction)
Kindly provide the number alone.

Sample Nc1c(Cl)cc([N+](=O)[O-])cc1Cl ; solubility (mole fraction) observed: 0.00338
